Attribute: relative viability
System: NCI-H358
method-description: relative viability (nuclei count vs DMSO), 5 days (fraction); higher = more cells survive
experimental-conditions: first compound 0.08 µM
// print number alone

molecule	system	test-result
COc1nc(C)cnc1NS(=O)(=O)c1cccnc1-c1ccc(-c2nnco2)cc1 [Zibotentan] + CC(=O)Nc1cccc(-n2c(=O)n(C3CC3)c(=O)c3c(Nc4ccc(I)cc4F)n(C)c(=O)c(C)c32)c1 [Trametinib] (partner 0.02 µM)	NCI-H358	0.15

Now for another entry.
Known value: NCI-H358 relative viability of the molecule O=c1cc(-c2cccc3c2Sc2ccccc2S3)oc(N2CCOCC2)c1 + COc1cc2c(Oc3ccc(NC(=O)C4(C(=O)Nc5ccc(F)cc5)CC4)cc3F)ccnc2cc1OCCCN1CCOCC1 [Foretinib] (partner 0.25 µM) equals 0.622
